B1: VH:VL chains; a variant is named by its letters at X, in order (parent)
chain 1: QVQLVQSGAEVKKPGASVKVSCKASGYTFTDYXMHWVRQAPGQGLEWMGXVNPNXXXTTYNQKFEGRVTMTTDTSTSTAYMELRSLRSDDTAVYYCARXNXLDXWGQGTTVTVSS
chain 2: DIQMTQSPSSLSASVGDRVTITCSVSSSVSSIYLHWYQQKPGKAPKLLIYSTSNLASGVPSRFSGSGSGTDFTLTISSLQPEDFATYYCQVYSGYPLTFGGGTKVEIK

Variants of: B1
Experiment: yeast display scFab, FACS + sequencing
Conditions: with MET
The list shows a part of the results. No count for the full screen is at hand.
attributeMeasured: antigen binding call

VEGRGDAV; no binding
YRRGSSGS; binds
VRGRGYGV; binds
VRGTGVAV; no binding
DRRGDDVF; no binding

Please turn your attention to the following entry.
Qu. Name the recorded antigen binding call of the variant listed here: YRKGGAWF
Ans. binds
